# Test system: Escherichia coli TOP10
# TEST_NAME: shrunken log2 fold change of peptide-encoding DNA abundance (4.5 h post-induction vs induction); higher = less antimicrobial activity (less host growth inhibition)
# EXPERIMENTAL_SETUP: time post-induction: 4.5 h; library: site-saturation at positions 5, 18, 19, 20
Each entry falls into one class according to its shrunken log2 fold change; the ranges are Low: < -0.1; Mid: ≥ -0.1 and < 0.07; High: ≥ 0.07

Known results for sequences:
[
  {
    "CHAIN_SEQUENCE": "RRIRGRPPRLPRPRPRPYQSPRP",
    "CAT": "Mid"
  },
  {
    "CHAIN_SEQUENCE": "RRIRYRPPRLPRPRPRPQEKPRP",
    "CAT": "Mid"
  },
  {
    "CHAIN_SEQUENCE": "RRIRARPPRLPRPRPRPDTCPRP",
    "CAT": "Low"
  },
  {
    "CHAIN_SEQUENCE": "RRIRSRPPRLPRPRPRPILQPRP",
    "CAT": "High"
  },
  {
    "CHAIN_SEQUENCE": "RRIRCRPPRLPRPRPRPMEEPRP",
    "CAT": "Mid"
  },
  {
    "CHAIN_SEQUENCE": "RRIRYRPPRLPRPRPRPRCKPRP",
    "CAT": "Low"
  }
]

Problem: Just checking, what class would you give `RRIRKRPPRLPRPRPRPRIGPRP` here?
Result: High

Problem: Determine which band this sequence sits in: `RRIRVRPPRLPRPRPRPFINPRP`
Result: Low

Problem: Band assignment needed for `RRIRPRPPRLPRPRPRPVMWPRP` please.
Result: High

Problem: Each sequence maps to one class by shrunken log2 fold change. Which class for `RRIRVRPPRLPRPRPRPNYEPRP` ?
Result: Mid

Problem: Into which category would you place `RRIRDRPPRLPRPRPRPRYVPRP` ?
Result: Mid

Problem: Note: place this sequence into its band. Item: `RRIRCRPPRLPRPRPRPHRQPRP`
Result: Low

* * *

# Test system: Escherichia coli TOP10;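 also: peptides expressed intracellularly from a pBAD plasmid library in pooled LB shake-flask culture, induced with 0.3% L-arabinose, DNA abundance read by NGS, three biological replicates, DESeq2 with apeglm shrinkage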
# TEST_NAME: shrunken log2 fold change of peptide-encoding DNA abundance (4.5 h post-induction vs induction); higher = less antimicrobial activity (less host growth inhibition)
# EXPERIMENTAL_SETUP: time post-induction: 4.5 h; library: site-saturation at positions 5, 18, 19, 20
Quick rule for you: shrunken log2 fold change at 0.06 or higher means true, lower means false.

Use these answered entries as a reference point.
[
  {
    "CHAIN_SEQUENCE": "RRIRLRPPRLPRPRPRPIAWPRP",
    "CAT": "false"
  },
  {
    "CHAIN_SEQUENCE": "RRIRRRPPRLPRPRPRPHCFPRP",
    "CAT": "true"
  },
  {
    "CHAIN_SEQUENCE": "RRIRFRPPRLPRPRPRPPNQPRP",
    "CAT": "true"
  },
  {
    "CHAIN_SEQUENCE": "RRIRQRPPRLPRPRPRPMPMPRP",
    "CAT": "false"
  },
  {
    "CHAIN_SEQUENCE": "RRIRQRPPRLPRPRPRPHSAPRP",
    "CAT": "false"
  }
]

Problem: In plain terms: is recorded shrunken log2 fold change at least 0.06 for `RRIRWRPPRLPRPRPRPRDMPRP` ?
Result: false

Problem: Hi team, for `RRIRGRPPRLPRPRPRPIHLPRP` , is the recorded shrunken log2 fold change at or above 0.06?
Result: false

Problem: Please indicate if the recorded shrunken log2 fold change for `RRIRERPPRLPRPRPRPSLCPRP` meets or exceeds 0.06.
Result: false

Problem: Form field: shrunken log2 fold change at least 0.06? Entry: `RRIRTRPPRLPRPRPRPPFSPRP`
Result: false

Problem: Decide: is the reported value of shrunken log2 fold change for `RRIRQRPPRLPRPRPRPPLPPRP` equal to or greater than 0.06?
Result: true

Problem: Would you say `RRIRDRPPRLPRPRPRPRTRPRP` shows shrunken log2 fold change at minimum 0.06?
Result: true

Problem: Could you verify whether the entry `RRIRCRPPRLPRPRPRPSGDPRP` shows shrunken log2 fold change of no less than 0.06?
Result: false

Problem: Could you tell me if the measured shrunken log2 fold change of `RRIRTRPPRLPRPRPRPTILPRP` reaches 0.06 or more?
Result: false

Problem: Determine whether measured shrunken log2 fold change meets or exceeds 0.06 for `RRIRRRPPRLPRPRPRPMHRPRP`
Result: false
